Quick reference for selectivity ratio at 24 h among some compounds
- protocol.text: Selectivity index, ratio of CC50 for HEK293T cells assessed as reduction in cell viability measured after 24 hrs by MTT assay to MIC for Citrobacter freundii ATCC 8090 assessed as bacterial growth inhibition by CLSI protocol based serial microdilution method
- Format: toxicity
- measurement.setup: human, read-out: Selectivity Index

>  <smiles.representation>
CCCCCCCCCCCC[N+]12CC[N+](CCCCC[N+]34CC[N+](CCCCCCCCCCCC)(CC3)CC4)(CC1)CC2

>  <selectivity ratio at 24 h>
5

$$$$
>  <smiles.representation>
CCCCCCCCCCCC[N+]12CC[N+](CC#CC[N+]34CC[N+](CCCCCCCCCCCC)(CC3)CC4)(CC1)CC2

>  <selectivity ratio at 24 h>
4

$$$$
>  <smiles.representation>
CCCCCCCCCCCC[N+]12CC[N+](CCC[N+]34CC[N+](CCCCCCCCCCCC)(CC3)CC4)(CC1)CC2

>  <selectivity ratio at 24 h>
4

$$$$
>  <smiles.representation>
CCCCCCCCCCCC[N+]12CC[N+](C/C=C/C[N+]34CC[N+](CCCCCCCCCCCC)(CC3)CC4)(CC1)CC2

>  <selectivity ratio at 24 h>
6

$$$$

====

- Test system: Pseudomonas aeruginosa
- protocol.text: Antibacterial activity against Pseudomonas aeruginosa ATCC 9027 assessed as concentration required to inhibit visible growth by CLSI protocol based serial microdilution method
- Assay type: functional
property.label: MBC

>  <smiles.representation>
CCCCCCCCCCCC[N+]12CC[N+](Cc3cccc(-c4ccccc4C[N+]45CC[N+](CCCCCCCCCCCC)(CC4)CC5)c3)(CC1)CC2

>  <meas.value>
6.3 µg/mL

$$$$
>  <smiles.representation>
CCCCCCCCCCCC[N+]12CC[N+](C/C=C/C[N+]34CC[N+](CCCCCCCCCCCC)(CC3)CC4)(CC1)CC2

>  <meas.value>
3.1 µg/mL

$$$$
>  <smiles.representation>
CCCCCCCCCCCC[N+]12CC[N+](CCCCC[N+]34CC[N+](CCCCCCCCCCCC)(CC3)CC4)(CC1)CC2

>  <meas.value>
6.3 µg/mL

$$$$
>  <smiles.representation>
CCCCCCCCCCCC[N+]12CC[N+](CCC[N+]34CC[N+](CCCCCCCCCCCC)(CC3)CC4)(CC1)CC2

>  <meas.value>
3.1 µg/mL

$$$$
>  <smiles.representation>
CCCCCCCCCCCC[N+]12CC[N+](CCNCC[N+]34CC[N+](CCCCCCCCCCCC)(CC3)CC4)(CC1)CC2.[Cl-].[Cl-].[Cl-].[Cl-]

>  <meas.value>
6.3 µg/mL

$$$$
>  <smiles.representation>
CCCCCCCCCCCC[N+]12CC[N+](Cc3ccc(C[N+]45CC[N+](CCCCCCCCCCCC)(CC4)CC5)cc3)(CC1)CC2

>  <meas.value>
12.5 µg/mL

$$$$
>  <smiles.representation>
CCCCCCCCCCCC[N+]12CC[N+](CCCCCCCC[N+]34CC[N+](CCCCCCCCCCCC)(CC3)CC4)(CC1)CC2

>  <meas.value>
6.3 µg/mL

$$$$
>  <smiles.representation>
CCCCCCCCCCCC[N+]12CC[N+](CC#CC[N+]34CC[N+](CCCCCCCCCCCC)(CC3)CC4)(CC1)CC2

>  <meas.value>
12.5 µg/mL

$$$$
